Test system: BT-549 breast
Assay: NCI tumour cell line growth inhibition, 48 h
Answer each item with its documented TGI.
Answers are plain numbers, in µM.

// worked examples, TGI included
                                   molecule  unit_abbrev  measured_value
0              O=C(CCBr)N1CCN(C(=O)CCBr)CC1           µM            85.3
1  Oc1c(C(Nc2ccccn2)c2cccc(Oc3ccccc3)c2)ccc2cccnc12 (stereo unspecified)           µM              13
2  O=C(CN1CCN(Cc2ccccc2Cl)CC1)NC1CC(=O)c2c(Br)sc(Br)c21 (stereo unspecified)           µM            35.7
3  O=C(/C=C/C12c3ccccc3C(c3ccccc31)C1C(=O)N(c3ccc(Cl)cc3)C(=O)C12)c1ccccn1 (stereo unspecified)           µM           0.365
4                  Oc1cc(N2CC2)c(O)cc1N1CC1           µM            5.96
5    O=C(c1ccccc1)N1CCN(C(=S)NC2CCCCC2)C1=S           µM            44.2
6  Nn1c(Nc2ccc(S(N)(=O)=O)cc2)nnc(/C=C/c2c(O)ccc3ccccc23)c1=O           µM            40.4
7  COC1/C=C/C=C(/C)Cc2cc(O)c(Cl)c(c2)N(C)C(=O)CC(OC(=O)C(C)C)C2(C)OC2C(C)C2CC1(O)NC(=O)O2 (stereo unspecified)           µM            49.4

Moving on to another molecule below.
In: Output measured TGI for this item: "C/C(=N\NC(=S)N1CCN(c2ccccn2)CC1)c1ccccn1"
Out: 0.577

Measured values drawn from PubChem BioAssay (NCI) for this set.
